B1: library; a variant is named by its letters at N, in order (parent)
chain: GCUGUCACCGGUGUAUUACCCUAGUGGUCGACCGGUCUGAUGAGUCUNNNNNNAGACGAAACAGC

variants of: B1; assay: FACS-Seq fitted mean relative fluorescence mCherry/BFP with ligand (log10 relative fluorescence); ligand: hypoxanthine (xanthine aptamer); ligand concentration (+) FACS-Seq: 5 mM; higher = higher reporter protein expression; settings: HEK293T, ligand present: yes
measurement-kind: FACS-Seq fitted mean (log10)

| changes | measurement-kind | result-number |
| --- | --- | --- |
| UAAAUG | FACS-Seq fitted mean (log10) | 0.483 |
| UUAGGG | FACS-Seq fitted mean (log10) | 0.655 |
| AGUAUA | FACS-Seq fitted mean (log10) | 0.472 |
| GUCAGU | FACS-Seq fitted mean (log10) | 0.492 |
| ACGCAA | FACS-Seq fitted mean (log10) | 0.149 |
| AAACGG | FACS-Seq fitted mean (log10) | 0.486 |
| CUGUCA | FACS-Seq fitted mean (log10) | 0.439 |
| AGGUUG | FACS-Seq fitted mean (log10) | 0.557 |
| UAAUAA | FACS-Seq fitted mean (log10) | 0.321 |
| GAUGCU | FACS-Seq fitted mean (log10) | 0.0649 |
| CUAGUC | FACS-Seq fitted mean (log10) | 0.658 |
| AAUGUA | FACS-Seq fitted mean (log10) | 0.204 |
| GGUAGG | FACS-Seq fitted mean (log10) | 0.515 |
| CUUCGA | FACS-Seq fitted mean (log10) | 0.346 |
| GAUACA | FACS-Seq fitted mean (log10) | 0.711 |
| UAUGUC | FACS-Seq fitted mean (log10) | -0.356 |
| UCAUAC | FACS-Seq fitted mean (log10) | 0.474 |
| AGAACC | FACS-Seq fitted mean (log10) | 0.264 |
| UAUGGU | FACS-Seq fitted mean (log10) | 0.643 |
| GCUUGA | FACS-Seq fitted mean (log10) | 0.53 |
| UGCAGG | FACS-Seq fitted mean (log10) | 0.49 |
| GGGUGA | FACS-Seq fitted mean (log10) | 0.487 |
| UAAUCG | FACS-Seq fitted mean (log10) | 0.247 |
| CAUGCG | FACS-Seq fitted mean (log10) | 0.645 |
| AGCGGA | FACS-Seq fitted mean (log10) | 0.456 |
| UAACGG | FACS-Seq fitted mean (log10) | 0.473 |
| AACCUG | FACS-Seq fitted mean (log10) | 0.442 |
| ACCCUG | FACS-Seq fitted mean (log10) | 0.786 |
| AGCACG | FACS-Seq fitted mean (log10) | 0.609 |
| UGCCUG | FACS-Seq fitted mean (log10) | 0.712 |
| CCGGUG | FACS-Seq fitted mean (log10) | 0.594 |
| AAGGAG | FACS-Seq fitted mean (log10) | 0.589 |
| CAUAAA | FACS-Seq fitted mean (log10) | 0.597 |
| AAAUCG | FACS-Seq fitted mean (log10) | 0.509 |
| GGUUAG | FACS-Seq fitted mean (log10) | 0.458 |
| AAAGUU | FACS-Seq fitted mean (log10) | 0.548 |
| CCGGAA | FACS-Seq fitted mean (log10) | 0.151 |
| UAGUGA | FACS-Seq fitted mean (log10) | 0.438 |
| ACCAUU | FACS-Seq fitted mean (log10) | 0.395 |
| AACCGU | FACS-Seq fitted mean (log10) | 0.637 |
| CAACUU | FACS-Seq fitted mean (log10) | 0.377 |
| GGACCG | FACS-Seq fitted mean (log10) | 0.447 |
| UCCGGG | FACS-Seq fitted mean (log10) | 0.274 |
| UCUAGC | FACS-Seq fitted mean (log10) | 0.666 |
